Reference source for all entries: PubChem BioAssay (NCI)

# Test system: RPMI-8226 leukemia
# Test Protocol: NCI tumour cell line growth inhibition, 48 h
Measure: GI50

INSERT INTO measurements (compound, obs_value) VALUES
  ('CC(=O)[CH-]C(=O)c1ccccc1.CC(=O)[CH-]C(=O)c1ccccc1.[O-]c1ccc(O)cc1.[O-]c1ccc(O)cc1.[Ti+4]', '5.63 µM'),
  ('CC(C)NCCCNC1=C(Cl)C(=O)c2ccccc2C1=O', '3.48 µM'),
  ('CC(=O)[CH-]C(=O)c1ccccc1.CC(=O)[CH-]C(=O)c1ccccc1.CC(C)CCCC(C)[C@H]1CCC2[C@@H]3CCC4C[C@@H]([O-])CC[C@]4(C)C3CC[C@@]21C.CC(C)CCCC(C)[C@H]1CCC2[C@@H]3CCC4C[C@@H]([O-])CC[C@]4(C)C3CC[C@@]21C.Cl.[Ti+4] (stereo partly drawn)', '> 25 µM');
